- Test system: OVCAR-8 ovarian
- method summary: NCI tumour cell line growth inhibition, 48 h; in the data active = GI50 below about 0.43 µM; inactive = the rest
Outcomes: active, inactive

{"compound": "CC(C)=CCNc1ncnc2c1ncn2C1OC(COP(=O)(O)O)C(O)C1O (stereo not given)", "assigned category": "inactive"}
{"compound": "O=C(NCCc1ccccc1)C(c1csc2ccccc12)N(C(=O)CCl)c1ccc(-c2cnco2)cc1 (stereo not given)", "assigned category": "active"}
{"compound": "CCSc1sc(-c2ccc(C)cc2)nc1[P+](c1ccccc1)(c1ccccc1)c1ccccc1", "assigned category": "active"}
{"compound": "C=C1c2c(C)nn(-c3ccccc3)c2N(C)C23C[C@@H]1C1(C)c4c(C)nn(-c5ccccc5)c4N(C)C(C)(C[C@H]12)C3 (stereo not given in full)", "assigned category": "inactive"}
{"compound": "CC(=N\\O)/C(C)=N/O.CC(=N\\O)/C(C)=N/O.[Pd]", "assigned category": "inactive"}
{"compound": "COc1ccc(-c2ccc(/C=N/n3cnn(CN4CCN(C)CC4)c3=S)o2)c([N+](=O)[O-])c1", "assigned category": "inactive"}
{"compound": "COc1cc(Oc2cnc3cc(N)cc(N)c3n2)cc(OC)c1OC", "assigned category": "inactive"}
{"compound": "COc1cccc(-n2cnc3c(N/N=C/c4ccncc4)ncnc32)c1", "assigned category": "inactive"}
{"compound": "COc1cc(OC)cc(-c2n[nH]nc2-c2ccc3c(c2)OCO3)c1", "assigned category": "inactive"}
{"compound": "COc1ccc(-n2cc(-c3ccc(Cl)cc3)[nH]c2=S)cc1Cl", "assigned category": "inactive"}

###

- Tested on: HS 578T breast
- method summary: NCI tumour cell line growth inhibition, 48 h
Where a SMILES comes first, the peptide text is derived from it. [ ]: non-standard residue; d: D form. The star is where a group is joined. ξ: configuration not given here. 4Abz = Nc1ccc(C(=O)O)cc1; ξL = CC(C)CC(N)C(=O)O; NHOH = ON*
# TGI per record follows
metric name: TGI (µM)

{"compound": "CCOC(=O)C(NC(=O)Nc1ccccc1)(Nc1cccc(Cl)c1)C(F)(F)F (stereo not given)", "metric name": "TGI", "censor symbol": ">", "number": 78.4}
{"compound": "CC(=N\\O)/C(C)=N/O.CC(=N\\O)/C(C)=N/O.[Pd]", "metric name": "TGI", "censor symbol": ">", "number": 10}
{"compound": "COC1=C(NC(C)=O)C(=O)c2nc3n(c2C1=O)CCC3", "metric name": "TGI", "censor symbol": "=", "number": 82.8}
{"compound": "COc1ccc(/C(C#N)=C/c2nc3c(N4CCOCC4)nc(Cl)nc3n2C)cc1OC", "metric name": "TGI", "censor symbol": "=", "number": 2.68}
{"compound": "CC(C)CC(NC(=O)[C@@H]1CCCN1C(=O)CNC(=O)c1ccc(N)cc1)C(=O)N[C@H](C)C(=O)NO (stereo not given in full) (H-[4Abz]GP[ξL][dA]-{NHOH})", "metric name": "TGI", "censor symbol": ">", "number": 100}

###

- Tested on: MDA-MB-435
- method summary: NCI tumour cell line growth inhibition, 48 h

{"compound": "CCCCC#Cc1c(I)n(C2OC(CO[Si](C)(C)C(C)(C)C)C3OC(C)(C)OC32)c(=O)[nH]c1=O (centres undefined)", "system tested": "MDA-MB-435", "TGI": "29.8 µM"}
{"compound": "NC1=CN2c3ccccc3N(CC(=O)N3CCOCC3)C2C=C1 (centres undefined)", "system tested": "MDA-MB-435", "TGI": "> 100 µM"}
{"compound": "Cn1c(=O)c2[nH]c(Nc3ccccc3)nc2n(C)c1=O", "system tested": "MDA-MB-435", "TGI": "> 10 µM"}
{"compound": "Nc1c(Cl)ncnc1NCC1(CO)CCC1", "system tested": "MDA-MB-435", "TGI": "> 100 µM"}
